Origin of values: PubChem BioAssay

# protocolText: small-molecule microarray binders of probe aCHRDL2, primary screen, biochemical, biotinylated probe, 635/667 nm fluorescence (AID 1100)
# measurementSetup: higher = more signal
measuredProperty: composite z-score

- compound: "CN1C(=O)C2C=CC(C(O)COCc3ccccc3)N(N(c3ccccc3)c3ccccc3)C2C1=O (centres undefined)"
  obsValue: 0.815
- compound: "C=CCOC(=O)[C@H]1[C@@H]2C(=O)O[C@@H](c3ccccc3)[C@@H](c3ccccc3)N2[C@@H](c2ccc(OCCOC(=O)[C@@H]3C[C@@H]4C(=O)N[C@@H](CCCCNC(C)=O)C(=O)N4[C@@H]3c3ccc(O)cc3)cc2)[C@]12C(=O)Nc1ccc(I)cc12"
  obsValue: 0.127
- compound: "COc1ccccc1CN1C(=O)c2ccccc2[C@@]2(Cc3ccccc3N(CC(F)(F)F)C2=O)[C@@H]1c1ccc(CO)cc1"
  obsValue: -0.167
- compound: "C[C@@H]1ON(c2ccc(C(=O)OC(C)(C)C)cc2)[C@H](c2ccc(O)cc2)[C@H]1C(=O)N1C(=O)OC[C@H]1Cc1ccccc1"
  obsValue: -0.369
- compound: "N#Cc1ccc(NN2C(C(O)c3ccc(F)cc3)C=CC3C(=O)N(c4ccccc4)C(=O)C32)cc1 (centres undefined)"
  obsValue: 0.581
- compound: "COCCOC(=O)N1C(=O)[C@@]2(c3cc(C#Cc4ccc(OC)cc4)ccc31)[C@H](C(=O)Nc1nc3ccccc3s1)[C@H]1C(=O)O[C@H](c3ccccc3)[C@H](c3ccccc3)N1[C@@H]2c1ccc(OCCO)cc1"
  obsValue: -0.571
- compound: "CCCCC(O)C1C=CC2C(=O)N(c3ccccc3)C(=O)C2N1Nc1ccc(C(C)C)cc1 (centres undefined)"
  obsValue: 0.214
- compound: "COc1ccc(NC(=O)O[C@H]2[C@H](OC(=O)Nc3ccccc3)[C@H](OC(=O)Nc3ccccc3)[C@@H](OC)O[C@@H]2CO)cc1"
  obsValue: 0.816
- compound: "CCOC(=O)c1ccc(NC(=O)O[C@H]2[C@H](OC(=O)Nc3ccc4c(c3)OCO4)[C@H](OC(=O)Nc3ccc4c(c3)OCO4)[C@@H](OC)O[C@@H]2CO)cc1"
  obsValue: 0.944
- compound: "COC(=O)CCCCCCC(=O)Nc1ccc(NC(=O)CCCC[P+](c2ccccc2)(c2ccccc2)c2ccccc2)cc1"
  obsValue: -0.842
- compound: "O=C1NC(=O)C2C1C=CC(C(O)c1ccco1)N2Nc1ccccn1 (centres undefined)"
  obsValue: 0.0668
- compound: "[N-]=[N+]=Nc1ccccc1[C@@H]1OC(c2ccc(OCCCO)cc2)=N[C@]1(Cc1ccccc1)C(=O)NCC(O)CO (some centres undefined)"
  obsValue: 1.4
- compound: "COCCCNC(=O)[C@@]1(Cc2ccccc2CN=[N+]=[N-])N=C(c2ccc(OCCCO)cc2)O[C@H]1c1ccccc1"
  obsValue: 0.825
- compound: "O=C1OCC=C[C@H]2OC34C=CCN(c5ccc(Cl)cc5)C(=O)[C@H]3N(CCO)C(=O)[C@@H]4[C@@H]12 (some centres undefined)"
  obsValue: 0.777

* * *

# System: glycogen synthase kinase-3 (GSK3A per assay name; protocol says GSK3B)
# protocolText: GSK3 binders on small-molecule microarrays, primary screen, biochemical, small-molecule microarray, 635 nm fluorescence, GSK3A (AID 1103); further: the record names both GSK3A and GSK3B
# measurementSetup: small-molecule microarray binding, fluorescence 635 nm; higher = more signal
measuredProperty: composite z-score

- compound: "C=C(C)[C@@H]1CC=C(C(O)C2C=CC3C(=O)N(c4ccccc4)C(=O)C3N2Nc2ccccc2F)CC1 (some centres not stated)"
  measuredProperty: "composite z-score"
  obsValue: 1.3
- compound: "C[C@H]1NC(=O)[C@@]23C(=O)N[C@@H](Cc4ccccc4)C2[C@H](C)[C@@]2(C)O[C@H]2C3/C=C/C/C=C\\CNC(=O)[C@H](Cc2ccccc2)NC1=O (some centres not stated)"
  measuredProperty: "composite z-score"
  obsValue: 0.138
- compound: "Cc1cc(C)c(C(O)C2C=CC3C(=O)N(c4ccccc4)C(=O)C3N2Nc2ccc(C(C)C)cc2)c(C)c1 (configuration not stated)"
  measuredProperty: "composite z-score"
  obsValue: 1.25
- compound: "CC(C)(C)OC(=O)CC[C@@]1(C(=O)NCc2ccccc2)N=C(c2ccc(OCCCO)cc2)O[C@@H]1c1ccccc1N=[N+]=[N-]"
  measuredProperty: "composite z-score"
  obsValue: 1.18
- compound: "[N-]=[N+]=NCc1ccccc1C[C@@]1(C(=O)NCc2ccccc2)N=C(c2ccc(OCCCO)cc2)O[C@@H]1c1ccccc1N=[N+]=[N-]"
  measuredProperty: "composite z-score"
  obsValue: 1.21
- compound: "COC(=O)Cn1c(C(=O)N(C)C)cc2c1C[C@H]1CN(C(=O)c3ccccc3)[C@@](Cc3ccc(F)cc3)(C(=O)OC)[C@@H]21"
  measuredProperty: "composite z-score"
  obsValue: -0.367
- compound: "O=C(CS)NCCCCCCNC(=O)[C@H]1C[C@H]2C(=O)N[C@@H](Cc3ccccc3)C(=O)N2[C@H]1c1ccc(O)cc1"
  measuredProperty: "composite z-score"
  obsValue: 0.992
